Provenance of the data: ChEMBL document CHEMBL4257531

pKi: −log10 of the molar value.
D(2) dopamine receptor (Homo sapiens) pKi data
Sequence (P14416 whole entry): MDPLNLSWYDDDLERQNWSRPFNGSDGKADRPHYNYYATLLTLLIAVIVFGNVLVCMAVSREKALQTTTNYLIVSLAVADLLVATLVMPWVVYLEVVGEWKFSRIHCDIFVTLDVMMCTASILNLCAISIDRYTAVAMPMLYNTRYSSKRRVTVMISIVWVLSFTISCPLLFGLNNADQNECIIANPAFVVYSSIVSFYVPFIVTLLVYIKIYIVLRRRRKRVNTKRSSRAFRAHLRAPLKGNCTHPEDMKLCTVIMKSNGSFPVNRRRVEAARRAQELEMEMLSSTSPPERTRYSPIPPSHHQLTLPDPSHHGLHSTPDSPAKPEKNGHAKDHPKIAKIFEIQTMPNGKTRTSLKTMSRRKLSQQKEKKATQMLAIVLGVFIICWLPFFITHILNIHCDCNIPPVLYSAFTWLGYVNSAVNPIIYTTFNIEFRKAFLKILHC
PARAMETER: pKi

Use these answered entries as a reference point.
MOLECULE	pKi
CC1(c2ccc(F)cc2)NC(=O)N(CC(O)CN2CCc3ccccc3C2)C1=O (stereo not drawn)	5.23
CC1(C)NC(=O)N(CC(O)CN2CCN(C(c3ccccc3)c3ccccc3)CC2)C1=O (stereo not drawn)	5.94
CC1(c2ccc(F)cc2)NC(=O)N(CC(O)CN2CCN(C(=O)c3ccccc3)CC2)C1=O (stereo not drawn)	5.00
CC1(c2ccc(F)cc2)NC(=O)N(CC(O)CN2CCN(Cc3cccc4ccccc34)CC2)C1=O (stereo not drawn)	5.28
CC1(c2ccc(F)cc2)NC(=O)N(CC(O)CN2CCC(Oc3ccccc3)CC2)C1=O (stereo not drawn)	5.36

[I] CC1(c2ccc3ccccc3c2)NC(=O)N(CC(O)CN2CCN(c3ccccc3C#N)CC2)C1=O (stereo not drawn)
[II] CC1(c2ccc(F)cc2)NC(=O)N(CC(O)CN2CCC(Oc3ccc(Cl)cc3)CC2)C1=O (stereo not drawn)
[III] CC1(c2cccc3ccccc23)NC(=O)N(CC(O)CN2CCN(c3ccccc3C#N)CC2)C1=O (stereo not drawn)
**Query** Your job: order these 3 records by pKi, ascending. Would you mind listing the labels in the order asked for?
**Result** II, III, I

* * *

Target sequence: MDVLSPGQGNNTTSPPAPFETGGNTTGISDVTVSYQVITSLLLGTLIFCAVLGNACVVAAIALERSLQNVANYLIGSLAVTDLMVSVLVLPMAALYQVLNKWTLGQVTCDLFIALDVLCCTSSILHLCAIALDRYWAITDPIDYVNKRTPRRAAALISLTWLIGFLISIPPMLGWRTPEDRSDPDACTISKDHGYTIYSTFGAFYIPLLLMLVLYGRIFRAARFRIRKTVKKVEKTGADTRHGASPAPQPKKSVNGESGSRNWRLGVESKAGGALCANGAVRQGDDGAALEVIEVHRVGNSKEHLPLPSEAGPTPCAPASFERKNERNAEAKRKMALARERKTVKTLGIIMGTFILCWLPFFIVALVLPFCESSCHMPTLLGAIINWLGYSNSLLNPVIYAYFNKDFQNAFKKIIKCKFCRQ
PARAMETER: Ki (nM)

Known Ki results, listed for orientation:
COMPOUND	Ki [nM]
CC1(c2ccc(F)cc2)NC(=O)N(CC(O)CN2CCN(Cc3ccccc3)CC2)C1=O (configuration not stated)	378000
CC1(C)NC(=O)N(CC(O)CN2CCN(c3ccccc3C#N)CC2)C1=O (configuration not stated)	1160
CC1(c2ccc(F)cc2)NC(=O)N(CC(O)CN2CCN(Cc3cccc4ccccc34)CC2)C1=O (configuration not stated)	5580
COc1ccccc1N1CCN(CC(O)CN2C(=O)NC(C)(C)C2=O)CC1 (configuration not stated)	489
CC1(c2ccc(F)cc2)NC(=O)N(CC(O)CN2CCN(c3cccc4ccccc34)CC2)C1=O (configuration not stated)	19

[P] CC1(c2ccc(F)cc2)NC(=O)N(CC(O)CN2CCC(Oc3ccccc3)CC2)C1=O (configuration not stated)
[Q] COc1ccccc1N1CCN(CC(O)CN2C(=O)NC(C)(c3ccc4ccccc4c3)C2=O)CC1 (configuration not stated)
**Query** Select the item whose Ki value is smaller, choosing between P and Q . Answer by quoting the chosen item's label.
**Result** Q

* * *

Let's go through some recorded Ki values for 5-hydroxytryptamine receptor 7 (Homo sapiens) together.
PARAMETER: Ki (nM)

COMPOUND	PARAMETER	UNIT_LABEL	READING
CC1(c2cccc3ccccc23)NC(=O)N(CC(O)CN2CCN(c3ccccc3C#N)CC2)C1=O (configuration not stated)	Ki	nM	19
CC1(c2ccc(F)cc2)NC(=O)N(CC(O)CN2CCN(c3cccc4ccccc34)CC2)C1=O (configuration not stated)	Ki	nM	11
CC1(c2cccc3ccccc23)NC(=O)N(CC(O)CN2CCN(C(c3ccccc3)c3ccccc3)CC2)C1=O (configuration not stated)	Ki	nM	224
CC1(C)NC(=O)N(CC(O)CN2CCN(C(c3ccccc3)c3ccccc3)CC2)C1=O (configuration not stated)	Ki	nM	824
CC1(c2ccc(F)cc2)NC(=O)N(CC(O)CN2CCN(Cc3ccccc3)CC2)C1=O (configuration not stated)	Ki	nM	2080

[P] CC1(c2ccc(F)cc2)NC(=O)N(CC(O)CN2CCN(Cc3cccc4ccccc34)CC2)C1=O (configuration not stated)
[Q] CC1(c2ccc(F)cc2)NC(=O)N(CC(O)CN2CCC(Oc3ccccc3)CC2)C1=O (configuration not stated)
**Query** Compare reported Ki values for P and Q . Which is lower? // caller expects the label of the chosen entry
**Result** Q

* * *

- TEST_NAME: Intrinsic clearance in CD-1 mouse liver microsomes by UPLC-MS analysis
- Format: ADME, microsome
- STATED_CONDITIONS: read-out: CLH
PARAMETER: CLint scaled (mL/min/kg)

MOLECULE	PARAMETER	READING
COc1ccccc1N1CCN(CC(O)CN2C(=O)NC(C)(c3ccc4ccccc4c3)C2=O)CC1 (centres undefined)	CLint scaled	43.4

[1] CC1(c2ccc(F)cc2)NC(=O)N(CC(O)CN2CCN(C(c3ccccc3)c3ccccc3)CC2)C1=O (centres undefined)
[2] CC1(c2ccc(F)cc2)NC(=O)N(CC(O)CN2CCN(c3cccc4ccccc34)CC2)C1=O (centres undefined)
[3] COc1ccccc1N1CCN(CC(O)CN2C(=O)NC(C)(c3cccc4ccccc34)C2=O)CC1 (centres undefined)
**Query** Provide the items ranked by increasing CLint scaled. List each label, following the requested order.
**Result** 1, 3, 2
(1: 17.2 mL/min/kg, 3: 29 mL/min/kg, 2: 60.3 mL/min/kg)
